Assay target: 5-Lipoxygenase (Cavia porcellus, UniProt A0A286X958)
Construct: the polymorphonuclear leucocytes were collected and the cytosol fraction was obtained as an enzyme source; endogenous in cells
Sequence (A0A286X958 1-674): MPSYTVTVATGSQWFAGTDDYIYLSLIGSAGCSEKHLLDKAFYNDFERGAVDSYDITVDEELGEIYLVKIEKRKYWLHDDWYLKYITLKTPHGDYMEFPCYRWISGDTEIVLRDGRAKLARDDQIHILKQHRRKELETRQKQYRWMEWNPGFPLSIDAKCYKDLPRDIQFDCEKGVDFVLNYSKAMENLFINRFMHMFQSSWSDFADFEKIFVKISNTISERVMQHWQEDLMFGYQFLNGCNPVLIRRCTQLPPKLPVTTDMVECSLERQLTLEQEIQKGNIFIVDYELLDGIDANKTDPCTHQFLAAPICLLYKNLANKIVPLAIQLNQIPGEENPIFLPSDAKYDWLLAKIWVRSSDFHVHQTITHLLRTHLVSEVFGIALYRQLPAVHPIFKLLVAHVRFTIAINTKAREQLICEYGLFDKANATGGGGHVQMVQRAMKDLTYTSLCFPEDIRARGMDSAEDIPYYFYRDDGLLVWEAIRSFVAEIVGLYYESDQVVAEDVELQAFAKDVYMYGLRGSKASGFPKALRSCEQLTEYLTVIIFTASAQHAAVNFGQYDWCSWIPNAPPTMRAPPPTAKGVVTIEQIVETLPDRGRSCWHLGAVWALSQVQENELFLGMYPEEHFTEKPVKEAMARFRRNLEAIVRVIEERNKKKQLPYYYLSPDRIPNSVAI
Method notes: 5-Lipoxygenase inhibiting activity
Conditions used: cytosol fraction of guinea pig polymorphonuclear leucocytes, 14C-arachidonic acid, 5-hydroxyeicosatetraenoic acid formation
pIC50: −log10 of the molar value.
Test readout: pIC50

Task: Let me know recorded pIC50 for COc1ccc(-c2noc(CCCC(=O)/C=C/c3cc(C)c(O)c(C)c3)c2-c2ccc(OC)cc2)cc1 [Compound 40] , thanks.
Result: 5.52

(a) COc1ccc(-c2noc(C(=O)/C=C/C=C/c3ccc(O)c(OC)c3)c2-c2ccc(OC)cc2)cc1 [Compound 46]
(b) COc1ccc(-c2noc(CCNC(=S)/C=C/c3ccc(O)c(OC)c3)c2-c2ccc(OC)cc2)cc1 [Compound 48]
Task: Of the pair a and b , name the member with the lesser recorded pIC50. When you have decided, please share the label of that item.
Result: b
(b: 6.20, a: 6.41)

Origin of the recorded values: patent US5399577A
